B1: BCL2L13 (parent)
chain: MASSSTVPLGFHYETKYVVLSYLG

- Variants of: B1
- test protocol: protein stability index of a GFP-peptide fusion (GPS, HEK-293T) (PSI 1-6); higher = more stable;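 note: lentivirally expressed fusions sorted by FACS into six bins by GFP to DsRed ratio, PSI derived from sequencing read proportions per bin multiplied by bin number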
- cond: c terminus: a fixed tail appended
protein stability index for assorted variants
Number only, please.

{"columns": ["mutation code", "protein stability index"],
 "data": [
  ["P8E", 2.25]
]}

Switching to the query record.
Asked: Please report the measured protein stability index for L23S
Given back: 2.34
